Origin of values: patent US20260193376A1

Recorded pKd for the following binders
- target.under.test: T1, human plasma-derived Factor IXa (human, UniProt P00740 47-191; P00740 227-461)
- T1 construct: also called FIXa; hFIXa
- experiment.summary: ITC, 37 °C, pH 7.4, antibody injected into FIXa
Units for pKd: none; it is -log10 of a concentration expressed in mol/L.

# annotated cases, reported pKd shown
In plain terms, mAb01-9985 (antibody, V domains shown, Bivalent IgG) VH: EVQLVESGGGLVQPGRSLRLSCAASGFTFHDYAMHWVRQVPGKGLEWVSGISWRGDIGGYVKSVKGRFTISRDNAKNSLYLQMNSLRAEDTALYYCVKSYGSGSFYNAFDSWGQGTLVTVSS VL: DIQMTQSPSTLSASVGDRVTITCRASQSISSWLAWYQQKPGKAPKFLIYKASKLERGTPSRFSGSGSGTEFSLTISSLQPDDFATYYCLEYSSYIRTFGQGTKVEIK has a documented pKd of 5.90

In plain terms, mAb01-9978 (antibody, V domains shown, Bivalent IgG) VH: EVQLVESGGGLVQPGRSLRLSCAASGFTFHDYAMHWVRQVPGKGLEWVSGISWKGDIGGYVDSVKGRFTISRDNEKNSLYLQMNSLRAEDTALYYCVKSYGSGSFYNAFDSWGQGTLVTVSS VL: DIQMTQSPSTLSASVGDRVTITCRASQSISSWLAWYQQKPGKAPKLLIYKASRLERGTPSRFSGSGSGTEFSLTISSLQPDDFATYYCLEYSSYIRTFGQGTKVEIK has a documented pKd of 5.45

Next binder, please.
In plain terms, mAb01-9994 (antibody, V domains shown, Bivalent IgG) VH: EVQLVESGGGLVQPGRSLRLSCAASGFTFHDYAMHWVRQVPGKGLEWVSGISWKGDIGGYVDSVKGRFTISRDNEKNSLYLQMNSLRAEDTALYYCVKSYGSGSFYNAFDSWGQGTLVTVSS VL: DIQMTQSPSTLSASVGDRVTITCRASQSISSWLAWYQQKPGKAPKFLIYKASRLDRGTPSRFSGSGSGTEFSLTISSLQPDDFATYYCLEYSSYIRTFGQGTKVEIK has a documented pKd of 5.74
